# System: OVCAR-8
# experiment: NCI tumour cell line growth inhibition, 48 h
The source made the active and inactive calls. Cut-off read from the data, not from the text of the source: active = GI50 up to about 1.1 µM and inactive = higher.
Choose one outcome from this list and give only that: active, inactive

Before answering, review these 5 worked examples.
compound	assigned class
O=C(O)c1nn[nH]c1Cl	inactive
Cc1ccc(NC(=O)/C(Cc2nc3ccc([N+](=O)[O-])cc3nc2O)=N\NC(=O)C[n+]2ccccc2)c(C)c1	inactive
C(CCCCc1nnc(N2CCOCC2)o1)CCCc1nnc(N2CCOCC2)o1	inactive
Cc1ccc(NC(=O)CC2Sc3ccccc3NC2=O)cc1C (centres undefined)	inactive
CN1CN(c2ccccc2)C2(CCN(CCc3csc4ccccc34)CC2)C1=O	inactive

Query string: Look up the recorded call for COC(=O)c1c(OC(C)=O)ccc2c1c1cc3ccccc3c(OC(C)=O)c1n2C in this test.
Result string: inactive

Query string: Look up the recorded call for COC(=O)c1cc(S(=O)(=O)NC2=NNC(C)CN2)c(S)cc1Cl (centres undefined) in this test.
Result string: inactive

Query string: Look up the recorded call for COc1ccc(/C=C2\N=C(c3ccccc3)OC2=O)cc1OC(C)=O in this test.
Result string: inactive

Query string: Look up the recorded call for CN1C(=O)CCC1(O)C1C=CC=CC1 (centres undefined) in this test.
Result string: inactive

Query string: Look up the recorded call for COC(=O)[C@]12CC=C3O[C@@H]4OC5(CCCCC5)O[C@@H]4[C@H]3C1C(=O)C=CC2=O (some centres undefined) in this test.
Result string: inactive

Query string: Look up the recorded call for S=C=NC1CCC(c2cc3ccccc3s2)(N2CCCCC2)CC1 (centres undefined) in this test.
Result string: inactive

====

# Tested on: OVCAR-8
# experiment: NCI tumour cell line growth inhibition, 48 h
The source made the active and inactive calls. Rule as the data show it: active = GI50 up to about 1.1 µM and inactive = higher.
Choose one outcome from this list and give only that: active, inactive

Before answering, review these 6 worked examples.
molecule	assigned class
CC#Cc1ccc(-c2ccccc2)s1	inactive
O=C(/C=N/O)Nc1ccc(Cl)c(I)c1	inactive
COc1cccc(C2c3cc4c(cc3OC(NNC(N)=O)C2C)OCO4)c1OC (centres undefined)	inactive
CCCCCCCC(=O)OC[C@H](C[As](=O)(O)O)OC(=O)CCCCCCC	inactive
COc1ccc(-n2c(SC(CN3CCOCC3)CN3CCCC3=O)nc3ccccc3c2=O)cc1 (centres undefined)	inactive
COc1ccc(Nc2nc(N)c(C(=O)c3ccco3)s2)cc1	inactive

Query string: Look up the recorded call for CC(=O)OC1COC(n2nc(N)nc2C)C(OC(C)=O)C1OC(C)=O (centres undefined) in this test.
Result string: inactive

Query string: Look up the recorded call for O=C(/C(=C(/Br)I)c1ccccc1)c1ccccc1 in this test.
Result string: inactive

Query string: Look up the recorded call for Cc1nnc(N)nc1/C=C\c1ccc(N(C)C)cc1 in this test.
Result string: inactive

Query string: Look up the recorded call for Nc1c(C(=O)N/N=C/c2ccc(Cl)cc2)sc(=S)n1-c1ccccc1 in this test.
Result string: inactive

Query string: Look up the recorded call for Cc1cc(O)c(C=O)c(C)c1CCC1(C)C=Cc2cc(O)ccc2O1 (centres undefined) in this test.
Result string: inactive

Query string: Look up the recorded call for COc1cc(/C=C2\N=C(C)N(n3c(-c4ccccc4)nc4ccccc4c3=O)C2=O)cc(OC)c1OC in this test.
Result string: inactive

Query string: Look up the recorded call for CCc1nc(N)nc(N)c1-c1ccc2nnn(O)c2c1 in this test.
Result string: inactive

Query string: Look up the recorded call for O=C(Nc1nc2ncn(CC(COc3ccccc3)OC(=O)c3ccccc3)c2c(=O)[nH]1)c1ccccc1 (centres undefined) in this test.
Result string: inactive

Query string: Look up the recorded call for CCOC(=O)CCN1C(=O)C(=O)N(c2ccc(OC)cc2)C1=S in this test.
Result string: inactive

Query string: Look up the recorded call for CC1=NN2CCC(=O)N=C2S1 in this test.
Result string: inactive

Query string: Look up the recorded call for OC1=CN=C(C2CC2)Oc2ccccc21 in this test.
Result string: inactive

Query string: Look up the recorded call for O=C1c2ccccc2C2(Br)C(=O)c3ccccc3C12 (centres undefined) in this test.
Result string: inactive

Query string: Look up the recorded call for COc1cc(C2c3cc4c(cc3OC(C)(N3CCCC3)C2C)OCO4)cc(OC)c1OC (centres undefined) in this test.
Result string: active
